FYI, the data here is from ChEMBL document CHEMBL3991601.

# TARGET: Serine/threonine-protein kinase pim-1 (Homo sapiens, UniProt P11309); further: in the data inactive means no Kd found up to 30 µM
# Sequence (P11309 whole entry): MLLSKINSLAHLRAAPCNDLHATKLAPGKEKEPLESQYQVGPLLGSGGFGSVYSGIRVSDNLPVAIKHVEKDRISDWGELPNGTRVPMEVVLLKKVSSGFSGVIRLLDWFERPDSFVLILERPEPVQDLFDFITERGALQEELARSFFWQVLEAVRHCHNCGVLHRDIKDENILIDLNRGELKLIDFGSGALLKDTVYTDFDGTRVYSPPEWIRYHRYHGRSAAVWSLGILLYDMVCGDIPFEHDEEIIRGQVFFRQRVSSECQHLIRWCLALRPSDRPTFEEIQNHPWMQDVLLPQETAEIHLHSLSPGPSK
The source made the active and inactive calls.
Possible outcomes: yes (1) (active), no (0) (inactive)

INSERT INTO measurements (smiles_repr, label_class) VALUES
  ('Cc1cc(Nc2ncnc3ccc(NC4=NC(C)(C)CO4)cc23)ccc1Oc1ccn2ncnc2c1', 'no (0)'),
  ('Cc1cnc(NC(=O)Nc2cc(Br)c(C)cc2OC[C@@H]2CNCCO2)cn1', 'no (0)'),
  ('COc1ccc(S(=O)(=O)N(C(C)=O)c2ccccc2/C=C/c2cc[n+]([O-])cc2)cc1', 'no (0)'),
  ('CNC(=O)c1cc(Oc2ccc(NC(=O)Nc3cc(C(C)(C)C)nn3-c3ccc4ncccc4c3)c(F)c2)ccn1', 'no (0)'),
  ('O=C(Nc1nc2cccc(-c3ccc(CN4CCS(=O)(=O)CC4)cc3)n2n1)C1CC1', 'no (0)'),
  ('CC(=O)c1cnc2ccc(-c3cc(Cl)c(O)c(Cl)c3)nc2c1N[C@H]1CC[C@H](CN(C)C)CC1', 'yes (1)');

---

# TARGET: Serine/threonine-protein kinase N1 (Homo sapiens, UniProt Q16512); further: in the data inactive means no Kd found up to 30 µM
# Sequence (Q16512 whole entry): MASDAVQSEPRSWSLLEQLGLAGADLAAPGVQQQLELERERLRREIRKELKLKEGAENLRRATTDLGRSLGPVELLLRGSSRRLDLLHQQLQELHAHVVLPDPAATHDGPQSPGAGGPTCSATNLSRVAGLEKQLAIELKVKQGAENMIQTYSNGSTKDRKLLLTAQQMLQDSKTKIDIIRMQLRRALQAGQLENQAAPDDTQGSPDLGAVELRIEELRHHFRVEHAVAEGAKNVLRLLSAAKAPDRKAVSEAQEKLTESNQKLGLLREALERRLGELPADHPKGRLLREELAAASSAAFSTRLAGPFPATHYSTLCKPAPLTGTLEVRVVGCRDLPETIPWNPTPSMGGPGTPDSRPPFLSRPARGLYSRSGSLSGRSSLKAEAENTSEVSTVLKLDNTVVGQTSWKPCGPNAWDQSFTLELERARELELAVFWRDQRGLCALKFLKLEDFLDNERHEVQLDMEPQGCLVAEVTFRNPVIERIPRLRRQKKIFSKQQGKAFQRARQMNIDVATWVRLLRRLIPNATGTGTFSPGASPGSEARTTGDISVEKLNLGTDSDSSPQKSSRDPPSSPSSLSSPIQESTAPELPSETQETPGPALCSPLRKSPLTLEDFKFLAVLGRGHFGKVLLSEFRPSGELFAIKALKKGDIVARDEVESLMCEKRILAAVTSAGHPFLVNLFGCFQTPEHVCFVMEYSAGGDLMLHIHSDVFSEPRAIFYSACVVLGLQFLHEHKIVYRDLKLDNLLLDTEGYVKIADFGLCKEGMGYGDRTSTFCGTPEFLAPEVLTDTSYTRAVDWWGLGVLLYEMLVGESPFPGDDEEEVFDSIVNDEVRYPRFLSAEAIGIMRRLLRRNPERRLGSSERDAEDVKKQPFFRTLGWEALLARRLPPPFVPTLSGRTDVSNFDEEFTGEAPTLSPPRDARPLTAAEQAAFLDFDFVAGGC
Where a name gives a salt, the structure may show the parent alone. Activity calls are given as the source filed them.
Possible outcomes: yes (active), no (inactive)

INSERT INTO assay_data (compound, label_class) VALUES
  ('C[C@@H](NC(=O)c1ncnc(N)c1Cl)c1ncc(C(=O)Nc2cc(C(F)(F)F)c(Cl)cn2)s1', 'no'),
  ('O=C(Cc1ccc(-c2ccc(OCCN3CCOCC3)cc2)cn1)NCc1ccccc1', 'no'),
  ('COc1cc2c(Nc3ccc(Cl)c(Cl)c3F)ncnc2cc1OC[C@@H]1C[C@@H]2CN(C)C[C@@H]2C1', 'no'),
  ('CN1CCN(CCOc2cc(OC3CCOCC3)c3c(Nc4c(Cl)ccc5c4OCO5)ncnc3c2)CC1', 'no'),
  ('Cc1nc2cc(-n3ncc(C(=O)c4cc5ccccc5[nH]4)c3N)ccc2[nH]1', 'no'),
  ('Cn1ncc(Cl)c1-c1cc(C(=O)N[C@H](CN)Cc2ccc(F)c(F)c2)oc1Cl', 'yes'),
  ('CCn1c(C(=O)N(C2CC2)C2CC2)cc2c3c(ncn3C)c(Nc3cc(C)n(C)n3)nc21', 'no'),
  ('NC1(c2ccc(-c3nc4ccn5c(=O)[nH]nc5c4cc3-c3ccccc3)cc2)CCC1', 'no'),
  ('NC(=O)Nc1cc(-c2cccc(F)c2)sc1C(=O)N[C@H]1CCCNC1', 'yes'),
  ('Cc1cc(Nc2ncc(Cl)c(Nc3ccccc3S(=O)(=O)C(C)C)n2)c(OC(C)C)cc1C1CCNCC1', 'no'),
  ('CC(=O)NCC(=O)N1[C@@H]2CC[C@H]1c1ccc(Nc3ncc(C(F)(F)F)c(NC4CCC4)n3)cc12', 'yes'),
  ('CCNC(=O)C#Cc1ccc2c(c1)NC(=O)/C2=C(\Nc1ccc(CN(C)C)cc1)c1ccccc1', 'no'),
  ('Cn1cc(-c2cnn3c(N)c(Br)c([C@@H]4CCCNC4)nc23)cn1', 'no'),
  ('CN(C[C@@H]1COCCO1)S(=O)(=O)Nc1ccc2ccc3ncc(-c4cnn(C)c4)cc3c(=O)c2c1', 'no'),
  ('CC(C)c1cc(CNc2nc(Nc3cc(C4CC4)[nH]n3)cc(N3CCN(C)CC3)n2)on1', 'yes'),
  ('CCS(=O)(=O)N1CCN(c2ccc(Nc3ncc(C(N)=O)c(NC4CC4)n3)cc2)CC1 [Cerdulatinib Hydrochloride]', 'no'),
  ('N#CC1(c2ccc(NC(=O)c3cccnc3NCc3ccncc3)cc2)CCCC1', 'no'),
  ('C=CC(=O)Nc1cc2c(Nc3ccc(F)c(Cl)c3)ncnc2cc1C#CC(C)(C)N1CCN(C)CC1 [AV-412 FREE BASE]', 'no'),
  ('C=CC(=O)N1CCC[C@H](n2c(=O)n(-c3ccc(Oc4ccccc4)cc3)c3c(N)ncnc32)C1', 'no'),
  ('CNC(=O)c1nn(C)c2c1C(C)(C)Cc1cnc(Nc3ccc(N4CCN(C)CC4)cc3)nc1-2', 'no'),
  ('CN1C/C=C/CCOc2cccc(c2)-c2ccnc(n2)Nc2cccc(c2)C1', 'yes'),
  ('Cn1cnc2c(F)c(Nc3ccc(Br)cc3F)c(C(=O)NOCCO)cc21', 'no'),
  ('COc1cc([C@@H]2c3cc4c(cc3[C@H](O)[C@H]3COC(=O)[C@@H]23)OCO4)cc(OC)c1OC', 'no'),
  ('FC(F)(F)c1ccc(/C=C/c2nc(COc3ccc(CCCCn4ccnn4)cc3)co2)cc1', 'no'),
  ('Cc1cccc(-c2nn3c(c2-c2ccnc4ccc(C(N)=O)cc24)CCC3)n1', 'no'),
  ('Nc1ncnc2c1c(-c1cccc(OCc3ccccc3)c1)cn2[C@H]1C[C@@H](CN2CCC2)C1', 'no'),
  ('COCc1c(-c2ccc(NC(=O)Nc3cc(C(F)(F)F)ccc3F)c(F)c2)c2c(N)ncnn2c1CN1CCOCC1', 'no'),
  ('CO[C@H]1C[C@@H]2CC[C@@H](C)[C@@](O)(O2)C(=O)C(=O)N2CCCC[C@H]2C(=O)O[C@H]([C@H](C)C[C@@H]2CC[C@@H](OC(=O)C(C)(CO)CO)[C@H](OC)C2)CC(=O)[C@H](C)/C=C(\C)[C@@H](O)[C@@H](OC)C(=O)[C@H](C)C[C@H](C)/C=C/C=C/C=C/1C', 'no'),
  ('CCn1cc(-c2ccnc3[nH]c(-c4cccc(CN(C)C)c4)cc23)c(-c2ccc(NC(=O)N(C)C)cc2)n1', 'no'),
  ('Cc1nc(NC(=O)N2CCC[C@H]2C(N)=O)sc1-c1ccnc(C(C)(C)C(F)(F)F)c1', 'no'),
  ('C[C@H]1CNCCCN1S(=O)(=O)c1cccc2cncc(F)c12', 'yes');

---

# TARGET: Casein kinase II subunit alpha' (Homo sapiens); further: in the data inactive means no Kd found up to 30 µM
# Sequence (P19784 whole entry): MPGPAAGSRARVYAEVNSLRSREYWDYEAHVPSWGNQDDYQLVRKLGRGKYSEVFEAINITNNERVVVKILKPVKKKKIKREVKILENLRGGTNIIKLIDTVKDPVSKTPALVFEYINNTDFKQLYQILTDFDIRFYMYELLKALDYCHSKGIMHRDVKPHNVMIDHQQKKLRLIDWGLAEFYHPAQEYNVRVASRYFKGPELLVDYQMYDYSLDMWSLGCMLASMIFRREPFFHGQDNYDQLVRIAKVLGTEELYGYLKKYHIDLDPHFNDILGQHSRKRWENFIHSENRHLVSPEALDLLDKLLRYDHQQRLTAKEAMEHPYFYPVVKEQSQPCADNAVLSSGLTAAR
Structures can show the parent of a compound that is named as a salt. The source made the active and inactive calls.
Possible outcomes: true (active), false (inactive)

INSERT INTO results (compound, label_class) VALUES
  ('C[C@@H](Oc1cc(C(=O)Nc2ccc(C(=O)N3CCN(C)CC3)cc2)nnc1N)c1c(Cl)ccc(F)c1Cl', 'false'),
  ('CC(=O)c1cnc2ccc(-c3cc(Cl)c(O)c(Cl)c3)nc2c1N[C@H]1CC[C@H](CN(C)C)CC1', 'true'),
  ('Cc1cc(Nc2ncnc3ccc(NC4=NC(C)(C)CO4)cc23)ccc1Oc1ccn2ncnc2c1 [TUCATINIB]', 'false'),
  ('CC(=O)NCC(=O)N1[C@@H]2CC[C@H]1c1ccc(Nc3ncc(C(F)(F)F)c(NC4CCC4)n3)cc12 [PF-03814735]', 'true'),
  ('Cc1cccc(-c2nn3c(c2-c2ccnc4ccc(C(N)=O)cc24)CCC3)n1 [GALUNISERTIB]', 'false'),
  ('Cn1cnc2c(F)c(Nc3ccc(Br)cc3F)c(C(=O)NOCCO)cc21 [BINIMETINIB]', 'false'),
  ('CNC(=O)c1cccc2cc(Oc3ccnc4cc(OCC5(N)CC5)c(OC)cc34)ccc12 [LUCITANIB]', 'false'),
  ('C[C@@H](N)c1ccc(C(=O)Nc2ccnc3[nH]ccc23)cc1 [Y-39983]', 'true'),
  ('Cc1[nH]c(/C=C2\C(=O)Nc3ccccc32)c(C)c1CCC(=O)O [ORANTINIB]', 'true'),
  ('Cc1nc2cc(-n3ncc(C(=O)c4cc5ccccc5[nH]4)c3N)ccc2[nH]1 [FGFR INHIBITOR DEBIO 1347]', 'false'),
  ('CCS(=O)(=O)N1CCN(c2ccc(Nc3ncc(C(N)=O)c(NC4CC4)n3)cc2)CC1 [Cerdulatinib Hydrochloride]', 'true'),
  ('O=C1NC(=O)[C@@H](c2cn3c4c(cccc24)CCC3)[C@@H]1c1c[nH]c2ccccc12 [TIVANTINIB]', 'false'),
  ('NC(=O)Nc1cc(-c2cccc(F)c2)sc1C(=O)N[C@H]1CCCNC1 [AZD-7762]', 'true'),
  ('FC(F)(F)c1ccc(/C=C/c2nc(COc3ccc(CCCCn4ccnn4)cc3)co2)cc1 [MUBRITINIB]', 'false'),
  ('COc1cc2c(Nc3ccc(Cl)c(Cl)c3F)ncnc2cc1OC[C@@H]1C[C@@H]2CN(C)C[C@@H]2C1 [TESEVATINIB]', 'false'),
  ('Cc1nc(NC(=O)N2CCC[C@H]2C(N)=O)sc1-c1ccnc(C(C)(C)C(F)(F)F)c1 [ALPELISIB]', 'false'),
  ('O=C(Cc1ccc(-c2ccc(OCCN3CCOCC3)cc2)cn1)NCc1ccccc1 [TIRBANIBULIN]', 'false');

---

Calls of active or inactive are those of the source.
// each record: one item and its Kd for Epithelial discoidin domain-containing receptor 1 (Homo sapiens)
QUANTITY_NAME: Kd

INSERT INTO assay_data (smiles_repr, measured) VALUES
  ('CCn1c(C(=O)N(C2CC2)C2CC2)cc2c3c(ncn3C)c(Nc3cc(C)n(C)n3)nc21', '> 30 µM (inactive)'),
  ('CNC(=O)c1cccc2cc(Oc3ccnc4cc(OCC5(N)CC5)c(OC)cc34)ccc12', '0.014 µM (active)'),
  ('N#CC1(c2ccc(NC(=O)c3cccnc3NCc3ccncc3)cc2)CCCC1', '> 30 µM (inactive)'),
  ('Cn1cc(-c2cnc3ccc4ccc(CS(=O)(=O)NCc5ccccn5)cc4c(=O)c3c2)cn1', '> 30 µM (inactive)'),
  ('Cc1nc2cc(-c3nn(C(C)C)c4ncnc(N)c34)ccc2o1', '0.881 µM (active)'),
  ('COc1cc2c(Nc3ccc(Cl)c(Cl)c3F)ncnc2cc1OC[C@@H]1C[C@@H]2CN(C)C[C@@H]2C1', '0.073 µM (active)'),
  ('COc1cc2ncnc(Oc3cccc(NC(=O)Nc4cc(C(C)(C)C(F)(F)F)on4)c3)c2cc1OC', '0.124 µM (active)'),
  ('Cc1nc(Nc2n[nH]c3c2CN(C(=O)N[C@H](CN(C)C)c2ccccc2)C3(C)C)c2sccc2n1', '> 30 µM (inactive)'),
  ('COc1c(OCCCN2CCOCC2)ccc2c1N=C(NC(=O)c1cnc(N)nc1)N1CCN=C21', '> 30 µM (inactive)'),
  ('Nc1ncnc2c1c(-c1cccc(OCc3ccccc3)c1)cn2[C@H]1C[C@@H](CN2CCC2)C1', '> 30 µM (inactive)'),
  ('Cc1cc(Nc2ncnc3ccc(NC4=NC(C)(C)CO4)cc23)ccc1Oc1ccn2ncnc2c1', '> 30 µM (inactive)'),
  ('CO[C@H]1C[C@@H]2CC[C@@H](C)[C@@](O)(O2)C(=O)C(=O)N2CCCC[C@H]2C(=O)O[C@H]([C@H](C)C[C@@H]2CC[C@@H](OP(C)(C)=O)[C@H](OC)C2)CC(=O)[C@H](C)/C=C(\C)[C@@H](O)[C@@H](OC)C(=O)[C@H](C)C[C@H](C)/C=C/C=C/C=C/1C', '> 30 µM (inactive)'),
  ('CO[C@H]1C[C@@H]2CC[C@@H](C)[C@@](O)(O2)C(=O)C(=O)N2CCCC[C@H]2C(=O)O[C@H]([C@H](C)C[C@@H]2CC[C@@H](OC(=O)C(C)(CO)CO)[C@H](OC)C2)CC(=O)[C@H](C)/C=C(\C)[C@@H](O)[C@@H](OC)C(=O)[C@H](C)C[C@H](C)/C=C/C=C/C=C/1C', '> 30 µM (inactive)');
